Source: ChEMBL document CHEMBL5058577

System: U2OS
Assay: Multiplex assay against U2OS
Type: toxicity, cell-based
Settings: human, 24 h, 1 µM, compound concentration 1 uM, replicate 2
Population Hoechst High Intensity Objects (%) values for the compounds below.
attribute measured: Population Hoechst High Intensity Objects (%)

1. CC(C)(O)C(=O)N1CCN(c2ccc(C(F)(F)F)c(C3=C(c4c[nH]c5ccccc45)C(=O)NC3=O)c2)CC1 = 0%
2. CN1CCN(c2ccc(Nc3c4ccccc4nc4ccccc34)cc2)CC1.Cl.Cl.O = 4%
3. CCCCCCNC(=O)Nc1ccc(S(=O)(=O)Nc2ccc(CCNC[C@H](O)COc3ccc(O)cc3)cc2)cc1 = 2%
4. CSc1nc(NC2CCCC2)c([N+](=O)[O-])c(NC2CCCC2)n1 = 1%
5. Cc1cc(O)c(-c2ccc([C@@H](C)CN(C)C)cc2)c2c1[nH]c(=O)c1sccc12 = 6%
6. COc1cc(Nc2ncc3c(n2)-c2ccc(Cl)cc2C(c2c(F)cccc2OC)=NC3)ccc1C(=O)O = 2%
7. CCc1nn2c(C)cc(C)nc2c1Cc1ccc(-c2nnc(C3CCNCC3)o2)cc1 = 3%
8. Nc1nc(CC(=O)Nc2ccc(CCNC[C@H](O)c3ccccc3)cc2)cs1 = 0%
9. C[C@@H]1CC(=O)Nc2cccc(-c3ccc4c(c3)c(-c3cnn(C)c3)nn4C)c2N1 = 1%
10. O=c1nc2[nH]c3ccccc3nc-2c(=O)[nH]1 = 2%
11. COc1ccc2c(c1OCc1ccccc1)C[C@@H](C(=O)O)N(C(=O)C(c1ccccc1)c1ccccc1)C2 = 2%
12. Cl.Cl.OCCOCCN1CCN(C(c2ccccc2)c2ccc(Cl)cc2)CC1 (centres undefined) [HYDROXYZINE HYDROCHLORIDE] = 2%
13. Cc1sc2c(c1C)C(c1ccc(Cl)cc1)=N[C@H](CC(=O)OC(C)(C)C)c1nnc(C)n1-2 = 3%
14. C=CCN1C[C@H](C(=O)N(CCCN(C)C)C(=O)NCC)C[C@@H]2c3cccc4[nH]cc(c34)C[C@H]21 = 1%

* * *

Tested on: HEK-293T
Test: Multiplex assay against HEK293T
Format: toxicity, cell-based
Details: human, 12 h, 10 µM, compound concentration 10 uM, replicate 2
attribute measured: Population Fragmented Nuclei (%)

1. COCCCN1CCC(NC(=O)c2cc(Cl)c(N)c3c2OCC3)CC1 [PRUCALOPRIDE] = 10
2. Cc1nn(C)c2nc(NNC(=O)Nc3cc(Cl)nc(Cl)c3)cc(C(C)C)c12 = 4
3. C[C@H](NC(=O)CNC(=O)c1cccc(Cl)c1)c1ccccc1 = 7
4. O=c1ccc2ccc(OCCCCN3CCN(c4cccc5sccc45)CC3)cc2[nH]1 = 10
5. CC(C)(C)c1ccc(CSc2cnn(C(C)(C)C)c(=O)c2Cl)cc1 = 8
6. C[C@@H]1CC(=O)Nc2cccc(-c3ccc4c(c3)c(-c3cnn(C)c3)nn4C)c2N1 = 5
7. CCc1nn2c(C)cc(C)nc2c1Cc1ccc(-c2nnc(C3CCNCC3)o2)cc1 = 4
8. COc1ccc2c(c1OCc1ccccc1)C[C@@H](C(=O)O)N(C(=O)C(c1ccccc1)c1ccccc1)C2 = 4
9. Cc1sc2c(c1C)C(c1ccc(Cl)cc1)=N[C@H](CC(=O)OC(C)(C)C)c1nnc(C)n1-2 = 5

* * *

System: HEK-293T
Test: Multiplex assay against HEK293T
Type: toxicity, cell-based
Conditions: human, 48 h, 10 µM, compound concentration 10 uM, replicate 1
Label yes (1) when Population Tubulin-Different-Phenotype (%) < 20%; otherwise no (0).

1) Nc1nc(CC(=O)Nc2ccc(CCNC[C@H](O)c3ccccc3)cc2)cs1 [MIRABEGRON] = yes (1)
2) COC(c1ccccc1)(c1ccccc1)[C@H](Oc1nc(C)cc(C)n1)C(=O)O [AMBRISENTAN] = yes (1)
3) CN(C)C/C=C/C(=O)Nc1ccc(C(=O)N2CCCC(Nc3ncc(Cl)c(-c4c[nH]c5ccccc45)n3)C2)cc1 (stereo not drawn) = no (0)
4) Cc1nn(C)c2nc(NNC(=O)Nc3cc(Cl)nc(Cl)c3)cc(C(C)C)c12 = no (0)
5) CN1C[C@H](C(=O)N[C@]2(C)O[C@@]3(O)[C@@H]4CCCN4C(=O)[C@H](Cc4ccccc4)N3C2=O)C[C@@H]2c3cccc4[nH]cc(c34)C[C@H]21.CS(=O)(=O)O [DIHYDROERGOTAMINE MESYLATE] = yes (1)
6) COc1cc2nc(N3CCN(C(=O)c4ccco4)CC3)nc(N)c2cc1OC.Cl [PRAZOSIN HYDROCHLORIDE] = yes (1)
7) O=c1nc2[nH]c3ccccc3nc-2c(=O)[nH]1 [ALLOXAZINE] = yes (1)
8) COc1cc2nc(N3CCN(C(=O)COc4c(OC)cccc4C(C)C)CC3)nc(N)c2cc1OC.Cl.Cl = no (0)
